Recorded Drug uptake, one value per entry.
# PROTOCOL NOTES: Cellular uptake in human PMNC assessed as compound retention at 3 to 20 uM incubated for 3 hrs followed by drug washout measured after 3 hrs by LC-MS/MS analysis relative to initial drug accumulation
# Type: ADME
ENDPOINT NAME: Drug uptake (%)

CC[C@H]1OC(=O)[C@H](C)[C@@H](O[C@H]2C[C@@](C)(OC)[C@@H](O)[C@H](C)O2)[C@H](C)[C@@H](O[C@@H]2O[C@H](C)C[C@H](N(C)C)[C@H]2O)[C@](C)(OC)C[C@@H](C)C(=O)N[C@H](C)[C@@H](O)[C@]1(C)O
37
CC[C@H]1OC(=O)[C@H](C)[C@@H](O[C@H]2C[C@@](C)(OC)[C@@H](OC(=O)CN(CC)CC)[C@H](C)O2)[C@H](C)[C@@H](O[C@@H]2O[C@H](C)C[C@H](N(C)C)[C@H]2O)[C@](C)(OC)C[C@@H](C)C(=O)N[C@H](C)[C@@H](O)[C@]1(C)O
74
CC[C@H]1OC(=O)[C@H](C)[C@@H](O)[C@H](C)[C@@H](O)[C@](C)(O)C[C@@H](C)CN(C)[C@H](C)[C@@H](O)[C@]1(C)O
0
CC[C@H]1OC(=O)[C@H](C)[C@@H](O)[C@H](C)[C@@H](O[C@@H]2O[C@H](C)C[C@H](N(C)C)[C@H]2O)[C@](C)(O)C[C@@H](C)CN(C)[C@H](C)[C@@H](O)[C@]1(C)O
68
